Biological target: EP2 (Homo sapiens, UniProt P43116)
Sequence (P43116 whole entry): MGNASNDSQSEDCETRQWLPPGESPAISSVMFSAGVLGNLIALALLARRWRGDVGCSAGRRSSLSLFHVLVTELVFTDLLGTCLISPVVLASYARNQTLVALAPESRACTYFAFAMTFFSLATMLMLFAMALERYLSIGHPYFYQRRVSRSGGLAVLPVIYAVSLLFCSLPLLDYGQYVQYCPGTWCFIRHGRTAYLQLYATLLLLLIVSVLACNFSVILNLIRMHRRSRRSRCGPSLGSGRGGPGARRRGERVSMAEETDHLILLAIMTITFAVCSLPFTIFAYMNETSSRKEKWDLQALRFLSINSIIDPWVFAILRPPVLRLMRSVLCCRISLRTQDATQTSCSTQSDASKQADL
Test: EP2 Ca2+ signal assay
Type: cell-based
Excerpt: U.S. patent application Ser. No. 11/553,143, filed on Oct. 26, 2006, incorporated by reference herein, describes the methods used to obtain the in vitro data in Tables 1 and 2 below.
pEC50: −log10 of the molar value.

- Cpd smiles: "C[C@@H](O)CCC[C@H](O)/C=C/[C@@H]1[C@@H](C/C=C\\CCCC(=O)O)[C@H](Cl)C[C@H]1O"
  pEC50: 8.40
- Cpd smiles: "C[C@@H](O)CCC[C@H](O)/C=C/[C@@H]1[C@@H](CCCCCCC(=O)O)[C@H](Cl)C[C@H]1O"
  pEC50: 6.96

Taken from patent US8455547B2.
